Below is a list of entries, each paired with its recorded kon value.
# Measured On: T1, human PCSK9 (Proprotein Convertase Subtilisin/Kexin type 9) (human, UniProt Q8NBP7 31-692, biotin label in the ELISA formats (site not stated))
# T1 construct: 85 kDa was used as the analyte's mass in SPR; also called PCSK9 (WT); wild type PCSK9
# Test: SPR, Biacore T200, antibody captured, PCSK9 as analyte
Give the value in M⁻¹ s⁻¹ but do not write M⁻¹ s⁻¹ after it.

Consider the binder 40409 (hIgG4) (antibody, V domains shown, human IgG4 constant region) VH: QLNLQQSGPGLVNPSQTLSLTCAISGGSVSSNSAAWNWIRQSPSRGLEWLGRIYSRSKWYHDYAVSVKGRITINPDTSKNQFFLQLNSVTPEDTAVYYCARDWETIIWGDDGPNYYNYGLDVWGQGTTVTVSS VL: DIQMTQSPSSLSASVGDRVTITCRASQGIRNDLGWYQQKPGKAPKRLIYGASSLQSGVPSRFSGSGSGTEFTLTISSLQPEDFATYYCLQHNNYLWTFGQGTKVEIK and give its measured kon.
1.73e+06

Look up kon: 15.14.2-uAb-IgG4L (antibody, V domains shown, human IgG4 constant region, lambda light chain) VH: EVQMLESGGGLVQPGGSLRLSCAVSGFTFSRFAMSWVRQAPGKGLDWVSSISDNAGRTYFADSVKGRFTISRDNSKNTLYLQMNSLRADDTAVYYCAKLSNWGPYGMDVWGQGTTVTVSS VL: QSALTQPPSASGSPGQSVTISCTGTSSDVGYYNYVSWYQQHPGEAPKLMIYEVNKRPSGVPDRFSGSKSGSTASLTVSGLQAVDEADYYCSSYAGSKNFVVFGGGTKLTVL
324000

// returns reported kon for input 19.3.8-uAb1-IgG4L (antibody, V domains shown, human IgG4 constant region, lambda light chain) VH: QVQLVQSGAEVKKPGASVKVSCKASGYTFTGYYINWVRQAPGQGLEWMGRINPNSGGTNYAQKFQGRVTMTRDTSINTAYMELSRLRSDDTAVYFCASWEGTVTTWDFYYYYGMDVWGQGTTVTVSS VL: QSALTQPASVSGSPGQSITISCTGTSSDVDTYNYVSWYQHHPGKAPKLIIFDVSNRPSGVSNRFSGSKSGNTASLTISGLQAEDEADYYCSSYTSSSTLVVFGGGTKLTVL
15400

Query (binder): 17.72.3-uAb2-IgG4K (antibody, V domains shown, human IgG4 constant region, kappa light chain) VH: QVQLQESGPGLVKPSGTLSLTCAVSGGSIRSYNWWSWVRQPPGEGLEWIGEIHHSGTTNYNPSLKSRVTISVDKSKNQFSLKLSSVTAADTAVYYCARDYSGSYFDYWGQGTLVTVSS VL: EVVLTQSPATLSLSPGERATLSCRTSQSLSSYVAWSQQKPGQAPRLLIYDASKRATGVPARFSGSGSGTDFTLTISNLEPEDFAVYYCHQRGNWMSSFGQGTKLEIK ; field requested: kon
13700
